Record: compiled IC50 on TBK1 (Homo sapiens, UniProt Q9UHD2) from multiple reports.
Sequence (Q9UHD2 whole entry): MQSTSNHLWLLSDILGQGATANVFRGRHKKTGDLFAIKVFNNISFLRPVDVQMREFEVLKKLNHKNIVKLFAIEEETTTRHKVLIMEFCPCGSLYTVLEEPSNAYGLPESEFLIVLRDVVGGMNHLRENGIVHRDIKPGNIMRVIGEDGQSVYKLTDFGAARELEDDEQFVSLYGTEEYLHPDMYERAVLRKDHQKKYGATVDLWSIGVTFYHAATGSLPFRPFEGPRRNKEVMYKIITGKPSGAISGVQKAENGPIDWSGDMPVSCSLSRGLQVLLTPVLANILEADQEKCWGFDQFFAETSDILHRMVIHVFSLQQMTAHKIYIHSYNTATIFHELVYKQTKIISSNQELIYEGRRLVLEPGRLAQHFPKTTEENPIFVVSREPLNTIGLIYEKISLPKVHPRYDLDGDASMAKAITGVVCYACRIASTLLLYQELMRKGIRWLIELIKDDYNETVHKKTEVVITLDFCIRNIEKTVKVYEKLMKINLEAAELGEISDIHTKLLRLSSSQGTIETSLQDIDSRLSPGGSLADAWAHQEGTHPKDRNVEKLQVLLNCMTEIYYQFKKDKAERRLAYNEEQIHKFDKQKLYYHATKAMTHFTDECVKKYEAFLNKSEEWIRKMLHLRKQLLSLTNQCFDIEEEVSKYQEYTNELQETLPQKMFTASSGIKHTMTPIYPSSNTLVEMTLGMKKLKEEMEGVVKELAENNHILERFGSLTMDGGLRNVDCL

IC50 for "COCCN(C)C(=O)c1ccc(-c2cc3nccc(-c4ccc(OC5CCOCC5)c(C#N)c4)c3o2)cc1" is < 0.3 µM

IC50 for "Nc1ncc(-c2c[nH]c3ncccc23)c2ccncc12" is 1 to 10 µM

IC50 for CN1CCN(C(=O)c2ccc(-c3cc4nccc(-c5ccc(OC6CCOC6)c(C#N)c5)c4o3)cc2)CC1 (centres unmarked) is < 0.3 µM

IC50 for "CN1CCC(c2ccc(Nc3ncc4ccn(CCCNC(=O)C5CCC5)c4n3)cc2)CC1" is < 0.1 µM

IC50 for "COC1(c2ccc(Nc3ncc4ccn(CCCNC(=O)C5CCC5)c4n3)cc2)CCN(C)CC1" is < 0.1 µM
